settings: human, serum;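 note: acute human liver injury from clinical signs plus serum ALT or AST above 6 N or alkaline phosphatase above 1.7 N, covering cytolytic, cholestatic and mixed forms, value counts references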
*1 amine or outer side, *2 acyl side, *3 side chain or, on linkers, in order; H or OH if unused. Where a SMILES comes first, the peptide text is derived from it. Bridges are numbered along the chain shown (N, C = ends). [ ]: non-standard residue; d: D form. The star is where a group is joined. X1 = O=C1C[C@@H](C(=O)[*:2])N([*:1])C[C@H]1CS[C@@H]1CN2CCC1CC2; NMePhe(4-NMe2) = CN[C@@H](Cc1ccc(N(C)C)cc1)C(=O)O; Picolinoyl(3-OH) = O=C(c1ncccc1O)*; Phg = N[C@H](C(=O)O)c1ccccc1; dAbu = CC[C@@H](N)C(=O)O
property_measured: Hepatotoxicity (acute)

Quickly give me recorded Hepatotoxicity (acute) for O=C1Nc2ccc(Cl)cc2C(c2ccccc2)=NC1O (stereo unspecified)
0

Quickly give me recorded Hepatotoxicity (acute) for CC(C)(C)C(=O)OCOC(=O)[C@@H]1N2C(=O)[C@@H](/N=C/N3CCCCCC3)[C@H]2SC1(C)C
0

Quickly give me recorded Hepatotoxicity (acute) for CCN(CC)CCS(=O)(=O)[C@@H]1CCN2C(=O)c3coc(n3)CC(=O)C[C@H](O)/C=C(C)/C=C/CNC(=O)/C=C/[C@@H](C)[C@@H](C(C)C)OC(=O)[C@@H]12.CC[C@H]1NC(=O)[C@@H](NC(=O)c2ncccc2O)[C@@H](C)OC(=O)[C@H](c2ccccc2)NC(=O)[C@@H]2CC(=O)[C@H](CS[C@@H]3CN4CCC3CC4)CN2C(=O)[C@H](Cc2ccc(N(C)C)cc2)N(C)C(=O)[C@@H]2CCCN2C1=O [QUINUPRISTIN/DALFOPRISTIN] ({Picolinoyl(3-OH)}-T[dAbu]P[NMePhe(4-NMe2)][X1][Phg]; ester 1-C)
0

Quickly give me recorded Hepatotoxicity (acute) for O=C(Cn1ccnc1[N+](=O)[O-])NCc1ccccc1
1

Quickly give me recorded Hepatotoxicity (acute) for CO/N=C(\C(=O)N[C@@H]1C(=O)N2C(C(=O)O)=CCS[C@H]12)c1csc(N)n1
4

Quickly give me recorded Hepatotoxicity (acute) for CC(C)COCC(CN(Cc1ccccc1)c1ccccc1)N1CCCC1 (stereo unspecified)
1

Quickly give me recorded Hepatotoxicity (acute) for Nc1c2c(nc3ccccc13)CCCC2
22

Quickly give me recorded Hepatotoxicity (acute) for O=C(O)C(=O)O
0

Quickly give me recorded Hepatotoxicity (acute) for Nc1nnc(-c2cccc(Cl)c2Cl)c(N)n1
17

Quickly give me recorded Hepatotoxicity (acute) for CC1(C)S[C@@H]2[C@H](NC(=O)[C@H](N)c3ccccc3)C(=O)N2[C@H]1C(=O)O
9

Quickly give me recorded Hepatotoxicity (acute) for NNc1nncc2ccccc12 [HYDRALAZINE]
9

Quickly give me recorded Hepatotoxicity (acute) for CN(C)CCC=C1c2ccccc2COc2ccccc21 [DOXEPIN]
2

Quickly give me recorded Hepatotoxicity (acute) for Cc1cnc(NCCCN(C)C)c2c1[nH]c1ccc3cc(O)ccc3c12
1

Quickly give me recorded Hepatotoxicity (acute) for Oc1ccc(Cl)cc1Cc1cc(Cl)ccc1O
2

Quickly give me recorded Hepatotoxicity (acute) for CC(C)(C)NCC(O)c1cc(O)cc(O)c1 (stereo unspecified)
2

Quickly give me recorded Hepatotoxicity (acute) for CC(=O)N[C@@H](CS)C(=O)O
1
